The values you see were collected from PubChem BioAssay AID1159580.

# experimentNotes: chemical genetic growth profiling, strain panel (AID 1159580);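 further: tested at 20 µM; growth read once vehicle control cultures reached saturation at 30 °C; 1 = growth at the plate median or of vehicle wells; lower values mean less growth of the strain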
# settings: S. cerevisiae deletion strains, growth OD, locus YDR162C, strain NBP2, stronger effect = lower value
The whole screen tested about 5,500 compounds, of which about 2,000 (36%) were called active. Roughly 18% stayed inconclusive and do not appear here. This is one part of the list.
measureName: normalized growth

>>> experimentalresult("COC(=O)C1=C(C)NC(C)=C(C(=O)OC)C1c1ccccc1[N+](=O)[O-]")
"0.388 (active)"
>>> experimentalresult("Cc1coc2ccccc2c1=O")
"1.01 (inactive)"
>>> experimentalresult("CC(=O)OC1CC2C(C)(C)CCCC2(C)C2CCC3(C)C(c4ccoc4)OC(=O)C4OC43C12C (centres undefined)")
"0.979 (inactive)"
>>> experimentalresult("Nc1ccc(C(=O)O)c(O)c1 (tested in a mixture with another compound)")
"0.995 (inactive)"
>>> experimentalresult("CC(=O)Nc1cccc(O)c1")
"0.999 (inactive)"
>>> experimentalresult("COc1cc2c3cc1Oc1cc(ccc1O)C[C@@H]1c4c(cc(OC)c(O)c4Oc4ccc(cc4)C[C@@H]3N(C)CC2)CC[N+]1(C)C")
"1.03 (inactive)"
>>> experimentalresult("COc1ccc2c(=O)cc(-c3ccccc3OC)oc2c1")
"0.843 (inactive)"
>>> experimentalresult("COc1ccc(C(=O)/C=C/c2ccccc2)cc1")
"0.965 (inactive)"
>>> experimentalresult("Cn1nnnc1SCC1=C(C(=O)O)N2C(=O)C(NC(=O)C(O)c3ccccc3)C2SC1 (centres undefined)")
"1.06 (inactive)"
>>> experimentalresult("O=C(O)/C=C(\\CC(=O)O)C(=O)O")
"1.05 (inactive)"

Now for the compound whose normalized growth we want.
Look at this compound and give its reported normalized growth. O=C(/C=C/c1ccccc1)c1ccc(O)cc1
0.182 (active)
